Test Method Notes: Plasma pharmacokinetics of pomalidomide and circulating metabolites by radiochromatography (metabolite profiling)
Format: in vivo, human
Parameters: concentration or dose not given beside the values
Run Parameters: plasma, radiochromatography, geometric mean (%CV)
Property Measured: AUC0−∞

Examples from the recorded data:
Nc1cccc(C(=O)O)c1C(=O)O [Metabolite M2, 3-Aminophthalic acid] : 4.27 (12.7) ngEq*h/mL
Nc1c(O[C@@H]2O[C@H](C(=O)O)[C@@H](O)[C@H](O)[C@H]2O)ccc2c1C(=O)N(C1CCC(=O)NC1=O)C2=O (stereo partly shown) [Metabolite M12] : 10.1 (30.2) ngEq*h/mL
Nc1ccc(O)c2c1C(=O)N(C1CCC(=O)NC1=O)C2=O (stereo not shown) [Metabolite M16, 7-hydroxy pomalidomide] : 17.6 (29.9) ngEq*h/mL

Now look at this entry.
// recorded AUC0−∞ for Nc1c(O[C@@H]2O[C@H](C(=O)O)[C@@H](O)[C@H](O)[C@H]2O)ccc2c1C(=O)N(C1CCC(=O)NC1=O)C2=O (stereo partly shown) [Metabolite M13] : 5.99 (48.9) ngEq*h/mL

---

Test Method Notes: Plasma pharmacokinetics of pomalidomide and its enantiomers (chiral LC–MS/MS) after a single oral 2 mg dose of [14C]pomalidomide
Assay type: in vivo, human
Run Parameters: male, human, po, 2 mg, median (min–max)
Property Measured: Tmax

// recorded Tmax for Nc1cccc2c1C(=O)N(C1CCC(=O)NC1=O)C2=O (racemic) [Pomalidomide] : < 3.5 h

---

Test Method Notes: Plasma pharmacokinetics of pomalidomide and circulating metabolites by radiochromatography (metabolite profiling)
Assay type: in vivo, human
Run Parameters: plasma exposure relative to total radioactivity
Procedure: Individual plasma samples collected from all subjects at 1, 2.5, 4, 6, 10, 12 and 24 h post-dose were analyzed for metabolite profiling. […] The residues were re-suspended in 0.1 % formic acid in water, assayed for extraction recovery and analyzed for metabolite profiling. […] Radioactivity profiles for plasma and excreta were determined by collecting the column eluate into 96-well Deepwell LumaPlates™ at a rate of 0.25 min/fraction. […]
Could you mark each record YES if its AUC/AUCTRA falls strictly under 5%, and NO if it equals or exceeds it?

Here are 5 molecules together with their reported answers.
Nc1ccc(O)c2c1C(=O)N(C1CCC(=O)NC1=O)C2=O (stereo not drawn) [Metabolite M16, 7-hydroxy pomalidomide] : NO
Nc1c(O)ccc2c1C(=O)N(C1CCC(=O)NC1=O)C2=O (stereo not drawn) [Metabolite M17, 5-hydroxy pomalidomide] : YES
Nc1c(O[C@@H]2O[C@H](C(=O)O)[C@@H](O)[C@H](O)[C@H]2O)ccc2c1C(=O)N(C1CCC(=O)NC1=O)C2=O (stereo partly drawn) [Metabolite M12] : YES
Nc1c(O[C@@H]2O[C@H](C(=O)O)[C@@H](O)[C@H](O)[C@H]2O)ccc2c1C(=O)N(C1CCC(=O)NC1=O)C2=O (stereo partly drawn) [Metabolite M13] : YES
Nc1cccc(C(=O)O)c1C(=O)O [Metabolite M2, 3-Aminophthalic acid] : YES

Please examine the following record next.
# input hey, is AUC/AUCTRA for NC(=O)CCC(C(=O)O)N1C(=O)c2cccc(N)c2C1=O (stereo not drawn) [Metabolite M11] lower than 5% or not?
# output NO

---

Test Method Notes: Plasma pharmacokinetics of pomalidomide and circulating metabolites by radiochromatography (metabolite profiling)
Assay type: in vivo, human
Run Parameters: AUC0–24 (unchanged drug or metabolite)/AUC0–24 (TRA) * 100 %
Property Measured: Plasma (% AUC relative to TRA)

Nc1c(O)ccc2c1C(=O)N(C1CCC(=O)NC1=O)C2=O (stereo not drawn) [Metabolite M17, 5-hydroxy pomalidomide] : 4.0%
CC(=O)Nc1cccc2c1C(=O)N(C1CCC(=O)NC1=O)C2=O (stereo not drawn) [Metabolite M18, N-acetyl pomalidomide] : D
Nc1cccc2c1C(=O)N(C1CC(O)C(=O)NC1=O)C2=O (stereo not drawn) [Metabolite M19] : D
